Origin of the recorded values: ChEMBL document CHEMBL1127457

Target: Renin (Homo sapiens)
Sequence (P00797 whole entry): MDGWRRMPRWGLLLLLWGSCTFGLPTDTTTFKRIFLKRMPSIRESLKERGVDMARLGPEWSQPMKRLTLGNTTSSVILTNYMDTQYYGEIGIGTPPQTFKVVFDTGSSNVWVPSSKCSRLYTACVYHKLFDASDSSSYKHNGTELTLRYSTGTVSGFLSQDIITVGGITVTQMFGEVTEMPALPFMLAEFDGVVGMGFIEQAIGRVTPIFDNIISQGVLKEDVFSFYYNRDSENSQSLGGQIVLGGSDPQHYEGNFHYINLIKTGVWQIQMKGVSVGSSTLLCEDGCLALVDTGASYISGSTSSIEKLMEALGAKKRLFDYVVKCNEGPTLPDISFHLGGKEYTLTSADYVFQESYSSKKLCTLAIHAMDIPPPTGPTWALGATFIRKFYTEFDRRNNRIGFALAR
Assay: Tested in vitro for its ability to inhibit the human plasma renin at pH of 7.4
Format: cell-free
pIC50: −log10 of the molar value.
quantity kind: pIC50

Recorded pIC50, per entry:
input smiles | pIC50
CCCC[C@H](O[C@@H](Cc1ccccc1)C(=O)N1CCC(OCOC)CC1)C(=O)N[C@@H](CC1CCCCC1)[C@@H](O)C[C@H](C(=O)NCCC/N=C(/NC)NC#N)C(C)C | 8.89
CCCC[C@H](O[C@@H](Cc1ccccc1)C(=O)N1CCC(OCOC)CC1)C(=O)N[C@@H](CC1CCCCC1)[C@@H](O)C[C@H](C(=O)NCCNC(N)=O)C(C)C | 8.55
CCCC[C@H](O[C@@H](Cc1ccccc1)C(=O)N1CCC(OCOC)CC1)C(=O)N[C@@H](CC1CCCCC1)[C@@H](O)C[C@H](C(=O)NCCNC(=O)OCc1ccccc1)C(C)C | 7.96
CCCC[C@H](O[C@@H](Cc1ccccc1)C(=O)N1CCC(OCOC)CC1)C(=O)N[C@@H](CC1CCCCC1)[C@@H](O)C[C@H](C(=O)NCCNC(N)=S)C(C)C | 8.66

I: CCCC[C@H](O[C@@H](Cc1ccccc1)C(=O)N1CCC(OCOC)CC1)C(=O)N[C@@H](CC1CCCCC1)[C@@H](O)C[C@H](C(=O)NCCCCN)C(C)C
II: CCCC[C@H](O[C@@H](Cc1ccccc1)C(=O)N1CCC(OCOC)CC1)C(=O)N[C@@H](CC1CCCCC1)[C@@H](O)C[C@H](C(=O)NCCCNC(N)=O)C(C)C
Inquiry: Between the entries labelled I and II , which has a larger pIC50 value on record? Your answer should be the label of the entry you select.
Reply text: II
(II: 8.70, I: 8.37)
